- Target desc: T1, His-tagged CD73 extracellular domain protein (hCD73 ECD-His) (human, UniProt P21589 27-547)
- T1 construct: Expressed in CHO cells from pTT5-hCD73 ECD-His6, purified on nickel column; also called hCD73 ECD-His6; human CD73 ECD
- T1 sequence: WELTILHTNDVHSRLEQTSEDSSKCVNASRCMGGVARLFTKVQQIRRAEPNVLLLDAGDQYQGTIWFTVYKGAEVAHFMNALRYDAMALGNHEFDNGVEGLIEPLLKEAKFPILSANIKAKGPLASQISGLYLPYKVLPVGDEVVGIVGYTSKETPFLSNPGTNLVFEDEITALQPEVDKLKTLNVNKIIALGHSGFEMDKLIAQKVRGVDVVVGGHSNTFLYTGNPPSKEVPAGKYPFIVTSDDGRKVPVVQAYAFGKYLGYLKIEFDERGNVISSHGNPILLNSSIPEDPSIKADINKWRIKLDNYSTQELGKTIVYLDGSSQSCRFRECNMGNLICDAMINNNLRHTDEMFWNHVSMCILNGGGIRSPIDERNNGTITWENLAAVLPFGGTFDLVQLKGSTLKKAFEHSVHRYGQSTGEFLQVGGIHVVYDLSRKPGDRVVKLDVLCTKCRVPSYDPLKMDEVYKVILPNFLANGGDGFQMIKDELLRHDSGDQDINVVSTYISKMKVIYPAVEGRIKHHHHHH
- Assay name: Octet BLI, antibody on AHC sensor, antigen 50-200 nM, 1:1 fit
Field: pKd. Provide a value for each of the binders that follow.
Lab note — pKd values are minus log10 of concentrations in M.

Prompt: Entry mab065xhIgG1TM (clone 125A4E10), mouse-human chimeric anti-CD73 antibody (antibody, V domains shown, also called mAb065 chimeric antibody) VH: EVQLQQSGPELVKPGASVKISCKASGYTFTDYYMNWVKQSHGKSLEWIGNINPNNGDTNYNQKFKGKATLTVDKSSSTASMELRSLTSEDSAVYYCANSGYYYFDYWGQGTTLTVSS VL: DIVMTQSPSSLTVTAGEKVTMSCKSSQSLLNSGNQKNYLTWYQQKPGQPPKVLIYWASTRESGVPDRFTGSGSGTDFTLTISSVQAEDLAVYYCQNDYSYPPTFGGGTNLEIK has what pKd?
Response: 9.95

Prompt: Ok, now mab044xhIgG1TM (clone 80H7D6), mouse-human chimeric anti-CD73 antibody (antibody, V domains shown, also called mAb044 chimeric antibody) VH: EVKLVESGGGLVQPGGSLRLSCAASGFTFTDYYMSWVRQPPGKALEWLGFIRNKADGSTTEYSASVKGRFTISRDNSQSILYLQMNALRPEDSATYYCTRSPIYFDNWYFDVWGTGTTVTVSS VL: DIVMSQSPSSLAVSVGEKVTMTCKSSQSLLYSNNQKNYLAWYQQKPGQSPKLLIYWASTRESGVPDRFTGSGSGTDFTLTLSSVKAEDLAVYYCQQYYSYPFTFGSGTKLEIK
Response: 10.07

Prompt: Ok, now mab042xhIgG1TM (clone 77B9A3), mouse-human chimeric anti-CD73 antibody (antibody, V domains shown, also called mAb042 chimeric antibody) VH: QVQLQQSGAGLVKPGASVKLSCKASGYTFTNYWMHWVKQRPGQGLEWIGMIHPNSGSTNNNEKFKNKATLTVDKSSNTAYMQLSSLTSEDSAVYYCARFFFGGYPHYYALDYWGQGTSVTVSS VL: DIVMTQSQKFMSTTVGDRVSITCKASQNVGTAVAWYQQKPGQSPKLLIYSASDRYTGVPDRLTGSGSGTDFTLTISNVQSEDLADYFCQQYSSFPLFTFGSGTKLVIQ
Response: 10.23

Prompt: Ok, now mab038xhIgG1TM (clone 69C9E12), mouse-human chimeric anti-CD73 antibody (antibody, V domains shown, also called mAb038 chimeric antibody) VH: QVQLQQPGTELVNPGASVKLSCKASGYTFTSYWMHWVKQRPGQGLEWIGNINPSNGGTHYNEKFNNKATLTVDKSSSTAYMQLSSLTSEDSAVFYCARGDYAYDWYFTVWGTGTTVTVSS VL: DIVLTQSPASLAVSLGQRAIISCKASQSVSFAGTGLMHWYQQKPGQQPKLLIYRVSNLEAGIPTRFSGSGSRTDFTLNIHPVEEDDAATYYCQQNREFPWTFGGGTKLEIK
Response: 9.91

Prompt: Ok, now mab020xhIgG1TM (clone 24D6B4), mouse-human chimeric anti-CD73 antibody (antibody, V domains shown, also called mAb020 chimeric antibody) VH: EVQLQQSGPELVKPGASVKIPCKASGYTFTDYNMDWVKQRHGKSLEWIGDINPNNGGTVYNQKFKGKATLTVDKSSNTAYMELRSLTSEDTAVYYCARISGTGYWYFDVWGTGTTVTVSS VL: DIQMTQSPASLSVSVGETVTITCRASENIYSNLAWYQQKQGKSPQLLVYGATNLADGVPSRFSGSDSGTQYSLKINSLQSEDFGSYYCQHFWGTPWTFGGGTKLEIK
Response: 10.12
